Experiment summary: in vivo
Design: species or system dogs
Assay context: dog, iv, 10 mg/kg, Vd
Description: The formulations of 4-MP with PEG-300 and PEG-400 show an oral bioavailability of about 110% when compared with an i.v. formulation at a dose of 10mg/kg in PK studies in dogs. The following tables 1 to 3 show results of pharmacokinetic studies of the formulation of Example 3 (capsule containing 50 mg 4-MP and 250 mg PEG-400; Table 1) in comparison with a reference formulation (capsule containing 50 mg 4-MP and PEG-8000; Table 2) and IV administration of 4-MP. […]
Quantity kind: Vd

So, Cc1cn[nH]c1 [4-methylpyrazole, 4-Methylpyrazole] ? Its Vd was 0.94 L/kg

----------
Experiment summary: in vivo
Design: species or system dogs
Assay context: dog, iv, 10 mg/kg, Cmax
Quantity kind: Cmax (ng/mL)
Answers are plain numbers, in ng/mL.

So, Cc1cn[nH]c1 ? Its Cmax was 22600

----------
Experiment summary: in vivo
Design: species or system dogs
Assay context: dog, iv, 10 mg/kg, Vdss
Quantity kind: Vd (L/kg)
One number for each entry, in L/kg.

So, Cc1cn[nH]c1 ? Its Vd was 0.89

----------
Experiment summary: in vivo
Set-up: species or system dogs
Assay context: dog, iv, 10 mg/kg, AUC0-∞
Quantity kind: AUC(0-inf) (µg·h/mL)
Answers are plain numbers, in µg·h/mL.

So, Cc1cn[nH]c1 ? Its AUC(0-inf) was 145

----------
Experiment summary: in vivo
Design: species or system dogs
Assay context: dog, iv, 10 mg/kg, CL
Protocol: The formulations of 4-MP with PEG-300 and PEG-400 show an oral bioavailability of about 110% when compared with an i.v. formulation at a dose of 10mg/kg in PK studies in dogs. The following tables 1 to 3 show results of pharmacokinetic studies of the formulation of Example 3 (capsule containing 50 mg 4-MP and 250 mg PEG-400; Table 1) in comparison with a reference formulation (capsule containing 50 mg 4-MP and PEG-8000; Table 2) and IV administration of 4-MP. […]
Quantity kind: clearance

So, Cc1cn[nH]c1 ? Its clearance was 1.15 mL/min/kg
